Answer each item with its documented IC50 at 24 h.
assay: Toxicity against human HepG2 cells assessed as effect on mitochondrial dehydrogenase activity after 24 hrs; type: cell-based

These solved cases illustrate the format of a correct answer.
Molecule Smiles	IC50 at 24 h
CCNC(=O)Nc1nc2cc(-c3cccnc3)cc(-n3cccn3)n2n1	> 64 µg/mL
CCNC(=O)Nc1nc2cc(-c3cccnc3)cc(C(=O)NCC)n2n1	> 64 µg/mL

Next up:
Measured IC50 at 24 h, CCNC(=O)Nc1nc2cc(-c3cccnc3)cc(-c3nccs3)n2n1 : > 64 µg/mL

###

Answer each item with its documented MIC.
system: Enterococcus faecalis; experiment: Antibacterial activity against Enterococcus faecalis ATCC 29212; type: functional
Give bare numbers, in mg/L.

These solved cases illustrate the format of a correct answer.
Compound	System Tested	Units Of Measure	Result
CCNC(=O)Nc1nc2cc(-c3cccnc3)cc(C(=O)NCC)n2n1	Enterococcus faecalis	mg/L	4
CCNC(=O)Nc1nc2cc(-c3cccnc3)ccn2n1	Enterococcus faecalis	mg/L	32

List reported MIC for each of these compounds:
1. CCNC(=O)Nc1nc2cc(-c3cccnc3)cc(C(=O)OC)c2[nH]1
2. CO[C@@H]1[C@@H](OC(N)=O)[C@@H](O)[C@H](Oc2ccc3c(O)c(NC(=O)c4ccc(O)c(CC=C(C)C)c4)c(=O)oc3c2C)OC1(C)C [NOVOBIOCIN]
3. CCNC(=O)Nc1nc2cc(-c3cccnc3)cc(-c3cnn(C)c3)n2n1
4. CCNC(=O)Nc1nc2cc(-c3cccnc3)cc(-n3cncn3)n2n1
5. CCNC(=O)Nc1nc2cc(-c3cccnc3)cc(C(=O)N(C)C)n2n1

Found:
0.125
8
8
16
256

List reported MIC for each of these compounds:
1. CCNC(=O)Nc1nc2cc(-c3cccnc3)cc(-n3ccnc3)n2n1
2. CCNC(=O)Nc1cn2ccc(-c3cccnc3)cc2n1

Found:
[32, 32]

###

tested on: Staphylococcus aureus; assay: Antibacterial activity against Staphylococcus aureus ATCC 29213; assay type: functional
Measured Attribute: MIC

These solved cases illustrate the format of a correct answer.
Molecule Smiles	Result
CCNC(=O)Nc1nc2cc(-c3cccnc3)cc(-c3nccs3)n2n1	1 µg/mL
CCNC(=O)Nc1nc2cc(-c3cccnc3)cc(C(=O)NCC)n2n1	8 µg/mL
CCNC(=O)Nc1nc2cc(-c3cccnc3)cc(-n3ccnc3)n2n1	32 µg/mL
CCNC(=O)Nc1nc2cc(-c3cccnc3)cc(C(N)=O)n2n1	32 µg/mL
CCNC(=O)Nc1nc2cc(-c3cccnc3)cc(-n3cncn3)n2n1	16 µg/mL
CCNC(=O)Nc1nc2cc(-c3cccnc3)cc(-c3cnccn3)n2n1	> 128 µg/mL
CCNC(=O)Nc1nc2cc(-c3cccnc3)cc(-c3cccc(C(N)=O)c3)n2n1	> 256 µg/mL
CCNC(=O)Nc1nc2cc(-c3cccnc3)cc(C(=O)OC)n2n1	> 256 µg/mL

List reported MIC for each of these molecules:
1. CCNC(=O)Nc1nc2cc(-c3cccnc3)cc(-c3ccccc3O)n2n1
2. CCNC(=O)Nc1nc2cc(-c3cccnc3)cc(-c3ccc(O)cc3)n2n1

Found:
> 256 µg/mL
> 256 µg/mL

List reported MIC for each of these molecules:
1. CCNC(=O)Nc1nc2cc(-c3cccnc3)cc(-c3ccccc3)n2n1
2. CO[C@@H]1[C@@H](OC(N)=O)[C@@H](O)[C@H](Oc2ccc3c(O)c(NC(=O)c4ccc(O)c(CC=C(C)C)c4)c(=O)oc3c2C)OC1(C)C
3. CCNC(=O)Nc1nc2cc(-c3cccnc3)cc(-n3cccn3)n2n1

Found:
1: > 256 µg/mL; 2: 0.125 µg/mL; 3: 2 µg/mL

###

system: Staphylococcus aureus; assay: Antibacterial activity against Staphylococcus aureus ATCC 29213; assay type: functional
Measured Attribute: MIC

Molecule Smiles	MIC
CCNC(=O)Nc1nc2cc(-c3cccnc3)cc(-c3ccccc3F)n2n1	> 256 µg/mL

List reported MIC for each of these molecules:
1. CCNC(=O)Nc1nc2cc(-c3cccnc3)cc(-c3cccc(OC)c3)n2n1
2. CCNC(=O)Nc1nc2cc(-c3cccnc3)ccn2n1
3. CCNC(=O)Nc1nc2cc(-c3cccnc3)cc(-c3cccnc3)n2n1

Found:
1. > 128 µg/mL
2. 128 µg/mL
3. > 256 µg/mL

List reported MIC for each of these molecules:
1. CCNC(=O)Nc1nc2cc(-c3cccnc3)cc(-c3ccc(OC)cc3)n2n1
2. CCNC(=O)Nc1nc2cc(-c3cccnc3)cc(C(=O)OC)c2[nH]1

Found:
> 128 µg/mL
0.25 µg/mL
